# tested-system: Delta-type opioid receptor (Mus musculus, UniProt P32300)
# Sequence (P32300 whole entry): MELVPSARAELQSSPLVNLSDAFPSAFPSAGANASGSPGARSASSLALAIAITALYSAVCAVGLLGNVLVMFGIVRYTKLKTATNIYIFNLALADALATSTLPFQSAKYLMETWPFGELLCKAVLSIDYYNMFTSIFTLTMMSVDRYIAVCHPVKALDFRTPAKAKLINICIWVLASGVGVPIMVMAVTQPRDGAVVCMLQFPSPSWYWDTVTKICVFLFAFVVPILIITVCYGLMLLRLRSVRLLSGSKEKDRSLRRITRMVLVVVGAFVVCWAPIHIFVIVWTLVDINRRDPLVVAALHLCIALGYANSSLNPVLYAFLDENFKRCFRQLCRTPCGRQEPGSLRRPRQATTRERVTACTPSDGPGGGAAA
# assay-summary: In vitro antagonist activity against Opioid receptor delta 1 in the presence of 30 nM naltrindole, in a mouse vas deferens assay
# Type: functional, tissue-based
observation-type: pIC50
Scale explanation: pIC50 corresponds to minus log10 of a concentration expressed in moles per litre.

pIC50 reading for CCN1CC[C@]2(c3cccc(O)c3)Cc3[nH]c(C(=O)N(CC)CC)c(C)c3C[C@H]2C1 (racemic) : 6.48

====

# tested-system: Delta-type opioid receptor (Mus musculus, UniProt P32300)
# assay-summary: Binding affinity against Opioid receptor delta 1 using [3H][D-Ala2, D-Leu5]-enkephalin as radioligand
pKi: −log10 of the molar value.
Use rule met when the recorded pKi is no lower than 9; use rule not met when it is lower.

Previously resolved entries follow.
>>> class("Oc1ccc2c3c1O[C@H]1c4[nH]c5ccccc5c4C[C@@]4(O)[C@@H](C2)N(CC2CC2)CC[C@]314")
"rule met"
>>> class("CCN(CC)C(=O)c1[nH]c2c(c1C)C[C@H]1CN(C)CC[C@]1(c1cccc(O)c1)C2 (racemic)")
"rule not met"
>>> class("CCN1CC[C@]2(c3cccc(O)c3)Cc3[nH]c(C(=O)N(CC)CC)c(C)c3C[C@H]2C1 (racemic)")
"rule not met"
>>> class("CCN1CC[C@]2(c3cccc(O)c3)Cc3[nH]c(C(=O)N(CC)CC)c(C)c3C[C@H]2C1 (stereo in doubt; (+)-5b)")
"rule not met"

Okay, next one:
Please check the record CCN1CC[C@]2(c3cccc(O)c3)Cc3[nH]c4ccccc4c3C[C@H]2C1 (stereo in doubt; (+)-3) and state if its pKi is at or above 9.
rule not met

====

# Species on record: Mus musculus
# assay-summary: Selectivity ratio of the affinity for kappa and delta opioid receptors (Ki kappa/Ki delta)
Would you mind labelling by Selectivity ratio? At or over 200 is condition met, under is condition not met.

The following compounds have reported results that may help.
>>> class("CCN1CC[C@]2(c3cccc(O)c3)Cc3[nH]c(C(=O)N(CC)CC)c(C)c3C[C@H]2C1 (stereo in doubt; (+)-5b)")
"condition not met"
>>> class("Oc1ccc2c3c1O[C@H]1c4[nH]c5ccccc5c4C[C@@]4(O)[C@@H](C2)N(CC2CC2)CC[C@]314")
"condition not met"
>>> class("CCN1CC[C@]2(c3cccc(O)c3)Cc3[nH]c4ccccc4c3C[C@H]2C1 (stereo in doubt; (+)-3)")
"condition met"

Is Selectivity ratio for CCN(CC)C(=O)c1[nH]c2c(c1C)C[C@H]1CN(CC3CC3)CC[C@]1(c1cccc(O)c1)C2 (racemic) at or above 200?
condition not met

====

# Ki listing for each entry below
# tested-system: Kappa-type opioid receptor (Mus musculus, UniProt P33534)
# Sequence (P33534 whole entry): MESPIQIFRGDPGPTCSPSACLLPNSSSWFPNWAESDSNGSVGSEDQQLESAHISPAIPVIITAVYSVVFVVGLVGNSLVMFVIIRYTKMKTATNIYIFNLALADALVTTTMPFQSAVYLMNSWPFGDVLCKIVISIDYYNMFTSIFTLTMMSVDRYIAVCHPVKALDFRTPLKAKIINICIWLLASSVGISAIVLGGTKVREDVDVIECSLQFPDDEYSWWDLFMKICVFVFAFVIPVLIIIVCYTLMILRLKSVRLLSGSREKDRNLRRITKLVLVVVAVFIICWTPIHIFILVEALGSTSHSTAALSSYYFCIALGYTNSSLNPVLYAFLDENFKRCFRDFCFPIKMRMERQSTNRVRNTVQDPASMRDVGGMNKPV
Could you give me the number in nM? Just the number is fine.

>>> numeric_value("C=CCN1C[C@H](C)N([C@H](c2ccc(C(=O)N(CC)CC)cc2)c2cccc(OC)c2)C[C@H]1C [SNC-80]")
1350
>>> numeric_value("CCN(CC)C(=O)c1[nH]c2c(c1C)C[C@H]1CN(C)CC[C@]1(c1cccc(O)c1)C2 (racemic)")
500
>>> numeric_value("CCN1CC[C@]2(c3cccc(O)c3)Cc3[nH]c(C(=O)N(CC)CC)c(C)c3C[C@H]2C1 (racemic)")
1300

Kindly note: Kappa-type opioid receptor (Mus musculus, UniProt P33534), CCN(CC)C(=O)c1[nH]c2c(c1C)C[C@H]1CN(CC3CC3)CC[C@]1(c1cccc(O)c1)C2 (racemic) , Ki value reported: 63.1

====

We begin with a simple list: items and their reported Ki.
# tested-system: Delta-type opioid receptor (Mus musculus, UniProt P32300)
# assay-summary: Binding affinity against Opioid receptor delta 1 using [3H][D-Ala2, D-Leu5]-enkephalin as radioligand
Respond numerically; units are nM and should not be typed.

For orientation, consider the following solved cases.
>>> numeric_value("CCN1CC[C@]2(c3cccc(O)c3)Cc3[nH]c4ccccc4c3C[C@H]2C1 (stereo in doubt; (-)-3)")
1970
>>> numeric_value("CN1CC[C@]23c4c5ccc(O)c4O[C@H]2c2[nH]c4ccccc4c2C[C@@]3(O)[C@H]1C5")
0.8

Consider now this further compound.
Data point: CCN1CC[C@]2(c3cccc(O)c3)Cc3[nH]c4ccccc4c3C[C@H]2C1 (racemic) ; Ki = 7.1

====

# tested-system: UniProtKB P33534
pKi: −log10 of the molar value.
Decision: pKi >= 7 yields criterion met, all other cases yield criterion not met.

Known results for molecules:
>>> class("CCN1CC[C@]2(c3cccc(O)c3)Cc3[nH]c(C(=O)N(CC)CC)c(C)c3C[C@H]2C1 (stereo in doubt; (+)-5b)")
"criterion not met"
>>> class("CCN1CC[C@]2(c3cccc(O)c3)Cc3[nH]c4ccccc4c3C[C@H]2C1 (racemic)")
"criterion not met"
>>> class("CCN1CC[C@]2(c3cccc(O)c3)Cc3[nH]c4ccccc4c3C[C@H]2C1 (stereo in doubt; (-)-3)")
"criterion not met"
>>> class("Oc1ccc2c3c1O[C@H]1c4[nH]c5ccccc5c4C[C@@]4(O)[C@@H](C2)N(CC2CC2)CC[C@]314")
"criterion met"
>>> class("CCN1CC[C@]2(c3cccc(O)c3)Cc3[nH]c4ccccc4c3C[C@H]2C1 (stereo in doubt; (+)-3)")
"criterion not met"

Identify whether the reported pKi of the following molecule is 7 or greater: CCN1CC[C@]2(c3cccc(O)c3)Cc3[nH]c(C(=O)N(CC)CC)c(C)c3C[C@H]2C1 (stereo in doubt; (-)-5b)
criterion not met

====

# tested-system: Delta-type opioid receptor (Mus musculus)
# assay-summary: Inv itro antagonist activity against Opioid receptor delta 1 in the presence of 30 nM naltrindole, in a mouse vas deferens assay
# Format: functional, tissue-based
observation-type: pIC50
Reminder that pIC50 is minus the log10 of a molar concentration.

CCN1CC[C@]2(c3cccc(O)c3)Cc3[nH]c(C(=O)N(CC)CC)c(C)c3C[C@H]2C1 (stereo in doubt; (-)-5b) on Delta-type opioid receptor (Mus musculus) gives pIC50 = 6.34

====

# tested-system: Mu-type opioid receptor (Mus musculus, UniProt P42866)
# Sequence (P42866 whole entry): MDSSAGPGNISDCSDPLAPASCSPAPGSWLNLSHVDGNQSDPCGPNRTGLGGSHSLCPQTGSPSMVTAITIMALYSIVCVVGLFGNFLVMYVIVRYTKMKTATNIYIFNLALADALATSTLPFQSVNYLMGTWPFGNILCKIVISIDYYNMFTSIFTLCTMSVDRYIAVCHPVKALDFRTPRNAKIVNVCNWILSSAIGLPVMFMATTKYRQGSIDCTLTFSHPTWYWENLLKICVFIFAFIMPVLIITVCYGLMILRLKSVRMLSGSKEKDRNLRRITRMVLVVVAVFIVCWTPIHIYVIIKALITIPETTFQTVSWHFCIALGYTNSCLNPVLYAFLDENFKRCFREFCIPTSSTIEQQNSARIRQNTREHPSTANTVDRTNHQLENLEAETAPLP
pKi: −log10 of the molar value.
Please note: fulfilled applies when pKi is 6 or greater, and not fulfilled applies otherwise.

Tell me whether pKi is at least 6 here: CCN1CC[C@]2(c3cccc(O)c3)Cc3[nH]c(C(=O)N(CC)CC)c(C)c3C[C@H]2C1 (stereo in doubt; (+)-5b)
not fulfilled

====

# Organism: Mus musculus
# assay-summary: Selectivity ratio of the affinity for kappa and delta opioid receptors (Ki kappa/Ki delta)
Here, each record is paired with measured Selectivity ratio data.
Answer with a bare number; do not write a unit.

>>> numeric_value("CN1CC[C@]23c4c5ccc(O)c4O[C@H]2c2[nH]c4ccccc4c2C[C@@]3(O)[C@H]1C5 [OXYMORPHINDOLE]")
90

Per the record, CCN1CC[C@]2(c3cccc(O)c3)Cc3[nH]c4ccccc4c3C[C@H]2C1 (stereo in doubt; (-)-3) has Selectivity ratio of 0.1

Recorded result, CCN1CC[C@]2(c3cccc(O)c3)Cc3[nH]c4ccccc4c3C[C@H]2C1 (racemic) , Selectivity ratio: 50

Selectivity ratio measured on CCN(CC)C(=O)c1[nH]c2c(c1C)C[C@H]1CN(C)CC[C@]1(c1cccc(O)c1)C2 (racemic) = 240

Sample CCN1CC[C@]2(c3cccc(O)c3)Cc3[nH]c(C(=O)N(CC)CC)c(C)c3C[C@H]2C1 (stereo in doubt; (-)-5b) ; Selectivity ratio observed: 1480

Query CCN1CC[C@]2(c3cccc(O)c3)Cc3[nH]c(C(=O)N(CC)CC)c(C)c3C[C@H]2C1 (racemic) yields Selectivity ratio of 690

====

For Mu-type opioid receptor (Mus musculus), measured pKi is reported for the entries below.
// returns pKi (minus log10 of molar concentration), number only

>>> numeric_value("CCN1CC[C@]2(c3cccc(O)c3)Cc3[nH]c(C(=O)N(CC)CC)c(C)c3C[C@H]2C1 (stereo in doubt; (-)-5b)")
6.89

Value of measured pKi for the entry CCN1CC[C@]2(c3cccc(O)c3)Cc3[nH]c4ccccc4c3C[C@H]2C1 (stereo in doubt; (+)-3) : 5.58

Recorded pKi (compound CN1CC[C@]23c4c5ccc(O)c4O[C@H]2c2[nH]c4ccccc4c2C[C@@]3(O)[C@H]1C5 ): 6.18

Sure, the documented pKi for Oc1ccc2c3c1O[C@H]1c4[nH]c5ccccc5c4C[C@@]4(O)[C@@H](C2)N(CC2CC2)CC[C@]314 is 7.82

====

# tested-system: Mu-type opioid receptor (Mus musculus, UniProt P42866)
pKi: −log10 of the molar value.
Mark fulfilled for reported pKi of 6 or greater; mark not fulfilled for anything smaller.

Before answering, review these 4 worked examples.
>>> class("CCN1CC[C@]2(c3cccc(O)c3)Cc3[nH]c4ccccc4c3C[C@H]2C1 (racemic)")
"not fulfilled"
>>> class("CCN(CC)C(=O)c1[nH]c2c(c1C)C[C@H]1CN(C)CC[C@]1(c1cccc(O)c1)C2 (racemic)")
"fulfilled"
>>> class("CCN(CC)C(=O)c1[nH]c2c(c1C)C[C@H]1CN(CC3CC3)CC[C@]1(c1cccc(O)c1)C2 (racemic)")
"fulfilled"
>>> class("CCN1CC[C@]2(c3cccc(O)c3)Cc3[nH]c(C(=O)N(CC)CC)c(C)c3C[C@H]2C1 (racemic)")
"fulfilled"

Please look at the following molecule next.
Could you please find out whether CCN1CC[C@]2(c3cccc(O)c3)Cc3[nH]c4ccccc4c3C[C@H]2C1 (stereo in doubt; (-)-3) has pKi that meets 6 or exceeds it?
not fulfilled
